Measured melting point, listed per entry for reference.

These solved cases illustrate the format of a correct answer.
>  <Molecule>
Cc1cn(C)c(=O)n(-c2cc(C(=O)OC(C)C)c(Cl)cc2F)c1=O

>  <Measured>
177 to 180 °C

$$$$
>  <Molecule>
O=C(NCc1ccccc1)c1ccnc(-n2ccc(OCc3ccccc3)cc2=O)c1

>  <Measured>
158 to 161 °C

$$$$
>  <Molecule>
CONC(=O)c1cc(C(=O)OC)c2cc(Cc3ccc(F)cc3)cnc2c1O

>  <Measured>
186 to 188 °C

$$$$
>  <Molecule>
CCOC(=O)Nc1cscc1C(=O)OC

>  <Measured>
52 °C

$$$$
>  <Molecule>
Cc1cc(Cl)ccc1OCC(=O)N1Cc2ccc(C(=O)c3ccc(-c4ccccc4)cc3)n2Cc2ccccc21

>  <Measured>
102 to 105 °C

$$$$
>  <Molecule>
O=C(O)c1cccc(CC(Cn2ccnc2)c2ccc(F)cc2)c1 (stereo unspecified)

>  <Measured>
125 to 130 °C

$$$$

The reported melting point of the molecule Cc1cc(N2C(=O)c3ccccc3C2=O)c(C)cc1N=CN(C)C was 170 to 173 °C

Kindly note the recorded melting point for CC(C)(C)C(NC(=O)c1ccc(Cl)cc1)NC(=NC#N)NCc1ccncc1 (stereo unspecified) , which is 189 to 191 °C

Data point: COc1cccc(Cc2nnc(NCCSCc3nccs3)[nH]c2=O)c1 ; melting point = 128 to 129 °C

Recorded result, CC(C)CC(=O)c1cc2ccncc2[nH]1 , melting point: 215 to 218 °C
